- Test system: Hepatotoxicity
- ASSAY_INFO: FDA HLAED, liver enzyme composite activity
- REPORTED_CONDITIONS: human, Liver
Composite Activity - Active values, listed per item
The answer should be a number; do not append a unit.

For orientation, consider the following solved cases.
CCn1cc(C(=O)O)c(=O)c2cc(F)c(N3CCNCC3)cc21 [NORFLOXACIN]: 2
Cc1cccc(Nc2ccccc2C(=O)O)c1C [MEFENAMIC ACID]: 2
CN[C@H]1CC[C@@H](c2ccc(Cl)c(Cl)c2)c2ccccc21 [SERTRALINE]: 0

Qu. Provide only the value of recorded Composite Activity - Active for CCOC(=O)N1CCC(=C2c3ccc(Cl)cc3CCc3cccnc32)CC1 [LORATADINE]
Ans. 0

Qu. Answer with the recorded Composite Activity - Active for the compound listed here: Clc1ccccc1CN1CCc2sccc2C1 [TICLOPIDINE]
Ans. 0

Qu. Please report Composite Activity - Active for the following compound: Sc1ncnc2nc[nH]c12 [MERCAPTOPURINE ANHYDROUS]
Ans. 2

Qu. Report measured Composite Activity - Active; entry is CCc1cc(C(N)=S)ccn1 [ETHIONAMIDE]
Ans. 0

Qu. Please report Composite Activity - Active for the following compound: Cn1cnc([N+](=O)[O-])c1Sc1ncnc2nc[nH]c12 [AZATHIOPRINE]
Ans. 3

Qu. Consider the compound Nc1ccc(S(=O)(=O)Nc2ncccn2)cc1 [SULFADIAZINE] . State its measured Composite Activity - Active.
Ans. 0

Qu. Report measured Composite Activity - Active; entry is CNCCC=C1c2ccccc2CCc2ccccc21 [NORTRIPTYLINE]
Ans. 1

====

- System: Hepatotoxicity
- ASSAY_INFO: FDA HLAED, serum glutamic oxaloacetic transaminase (SGOT) increase
- REPORTED_CONDITIONS: human
VALUE_KIND: SGOT Increase - Activity Score

Worked cases, answers included:
CC(C)(C)NCC(O)c1ccc(O)c(CO)n1 (stereo not drawn): Inactive
C[C@]12CC[C@H]3[C@@H](CCC4=CC(=O)CC[C@@]43C)[C@@H]1CC[C@@H]2O: Inactive
O=C1CN=C(c2ccccc2)c2cc(Cl)ccc2N1CC(F)(F)F: Inactive
OC[C@H]1O[C@@H](n2cnc3c2NC=NC[C@H]3O)C[C@@H]1O: Inactive
C[C@@H](O)[C@H]1C(=O)N2C(C(=O)O)=C(S[C@@H]3CN[C@H](C(=O)N(C)C)C3)[C@H](C)[C@H]12: Active

Qu. Specify reported SGOT Increase - Activity Score for the molecule shown: `Cn1c(=O)c2[nH]cnc2n(C)c1=O.O`
Ans. Inactive

Qu. For the molecule Sc1ncnc2nc[nH]c12 [MERCAPTOPURINE ANHYDROUS] , report SGOT Increase - Activity Score.
Ans. Active

Qu. Specify measured SGOT Increase - Activity Score for `C=C1/C(=C\C=C2/CCC[C@]3(C)[C@@H]([C@H](C)CCCC(C)(C)O)CC[C@@H]23)C[C@@H](O)C[C@@H]1O` .
Ans. Inactive

====

- Test system: Hepatotoxicity
- ASSAY_INFO: FDA HLAED, alkaline phosphatase increase
- REPORTED_CONDITIONS: human
VALUE_KIND: Alkaline Phosphatase Increase - Number of Reports

CO[C@H]1/C=C/O[C@@]2(C)Oc3c(C)c(O)c4c(c3C2=O)C2=NC3(CCN(CC(C)C)CC3)NC2=C(NC(=O)/C(C)=C\C=C\[C@H](C)[C@H](O)[C@@H](C)[C@@H](O)[C@@H](C)[C@H](OC(C)=O)[C@@H]1C)C4=O: >= 4
CN(C)CCC=C1c2ccccc2COc2ccccc21 [DOXEPIN]: < 4
CCN(CC)CCNC(=O)c1cc(Cl)c(N)cc1OC [METOCLOPRAMIDE]: < 4
NCCC(O)(P(=O)(O)O)P(=O)(O)O: >= 4

====

- Test system: Hepatotoxicity
- ASSAY_INFO: FDA HLAED, gamma-glutamyl transferase (GGT) increase
- REPORTED_CONDITIONS: human
VALUE_KIND: GGT Increase - Index Value
The response must contain the number and no unit.

C[C@H]1O[C@H](O[C@H]2[C@H](O)[C@@H](O)[C@@H](O[C@H]3[C@H](O)[C@@H](O)C(O)O[C@@H]3CO)O[C@@H]2CO)[C@H](O)[C@@H](O)[C@@H]1N[C@H]1C=C(CO)[C@@H](O)[C@H](O)[C@H]1O (stereo partly drawn): 4.3
CCC(=O)O[C@@H](O[P@](=O)(CCCCc1ccccc1)CC(=O)N1C[C@H](C2CCCCC2)C[C@H]1C(=O)O)C(C)C: 0.6
C[C@H]1C[C@H]2[C@@H]3C[C@H](F)C4=CC(=O)C=C[C@]4(C)[C@@]3(F)[C@@H](O)C[C@]2(C)[C@@]1(O)C(=O)CCl: 0

Read the next record carefully.
Qu. Report the value of GGT Increase - Index Value obtained on Hepatotoxicity for Cc1cccc(C)c1OCC(C)N (stereo not drawn) .
Ans. 0

====

- System: Hepatotoxicity
- ASSAY_INFO: FDA HLAED, serum glutamic oxaloacetic transaminase (SGOT) increase
- REPORTED_CONDITIONS: human
VALUE_KIND: SGOT Increase - Number of Reports

Consider the reported SGOT Increase - Number of Reports for these compounds:
Nc1nc2c(ncn2CCC(CO)CO)c(=O)[nH]1 [PENCICLOVIR]: < 4
COc1ccc(-c2ccc3cc(C(=O)O)ccc3c2)cc1C12CC3CC(CC(C3)C1)C2: < 4
Nc1c2c(nc3ccccc13)CCCC2 [TACRINE]: >= 4
CC(C)c1nc(CN(C)C(=O)N[C@H](C(=O)N[C@@H](Cc2ccccc2)C[C@H](O)[C@H](Cc2ccccc2)NC(=O)OCc2cncs2)C(C)C)cs1 [RITONAVIR]: >= 4
CCOC(=O)Nc1ccc2c(c1)N(C(=O)CCN1CCOCC1)c1ccccc1S2 [MORICIZINE]: >= 4

Qu. Give SGOT Increase - Number of Reports only, for COc1cc2nc(N3CCN(C(=O)C4CCCO4)CC3)nc(N)c2cc1OC (centres undefined) [TERAZOSIN] , using Hepatotoxicity data.
Ans. >= 4

Qu. Look up Hepatotoxicity data: SGOT Increase - Number of Reports of CC(C)(C)NC(=O)[C@H]1CC[C@H]2[C@@H]3CC[C@H]4NC(=O)C=C[C@]4(C)[C@H]3CC[C@]12C [FINASTERIDE] , then report it.
Ans. >= 4

Qu. Provide SGOT Increase - Number of Reports, system Hepatotoxicity, entry FC(F)(F)C(Cl)Br (centres undefined) [HALOTHANE]
Ans. >= 4

Qu. Write down the reported SGOT Increase - Number of Reports (system: Hepatotoxicity) of CC[C@@H]1C(=O)OC[C@@H]1Cc1cncn1C [PILOCARPINE]
Ans. < 4

====

- Test system: Hepatotoxicity
- ASSAY_INFO: FDA HLAED, serum glutamic pyruvic transaminase (SGPT) increase
- REPORTED_CONDITIONS: human
VALUE_KIND: SGPT Increase - Activity Score

CC1=C(/C=C/C(C)=C/C=C/C(C)=C/C(=O)O)C(C)(C)CCC1 [TRETINOIN]: Inactive
CCCCCCCCCCC(=O)O[C@H]1CC[C@H]2[C@@H]3CCc4cc(O)ccc4[C@H]3CC[C@]12C [ESTRADIOL UNDECYLATE]: Inactive

====

# key: entry, value: Composite Activity - Active
- System: Hepatotoxicity
- ASSAY_INFO: FDA HLAED, liver enzyme composite activity
- REPORTED_CONDITIONS: human

C[C@]12CC[C@H]3[C@@H](CCC4=CC(=O)CC[C@@]43C)[C@@H]1CC[C@@H]2OC(=O)Cc1ccccc1 [TESTOSTERONE PHENYLACETATE]: 0
CCOC(=O)CCC(=O)O[C@H]1[C@H](O[C@@H]2[C@@H](C)[C@H](O[C@H]3C[C@@](C)(OC)[C@@H](O)[C@H](C)O3)[C@@H](C)C(=O)O[C@H](CC)[C@@](C)(O)[C@H](O)[C@@H](C)C(=O)[C@H](C)C[C@@]2(C)O)O[C@H](C)C[C@@H]1N(C)C [ERYTHROMYCIN ETHYLSUCCINATE]: 3

Qu. Supply Composite Activity - Active value. Item: CCC(=O)O[C@]1(C(=O)COC(C)=O)CC[C@H]2[C@@H]3C[C@H](C)C4=CC(=O)C=C[C@]4(C)[C@H]3[C@@H](O)C[C@@]21C [METHYLPREDNISOLONE ACEPONATE]
Ans. 0

====

- Tested on: Hepatotoxicity
- ASSAY_INFO: FDA HLAED, serum glutamic oxaloacetic transaminase (SGOT) increase
- REPORTED_CONDITIONS: human
VALUE_KIND: SGOT Increase - Number of Reports

CN1C(=O)OC(C)(C)C1=O: >= 4
CC1=C(/C=C/C(C)=C/C=C/C(C)=C\C(=O)O)C(C)(C)CCC1: >= 4
CCC(=O)O[C@@H](O[P@](=O)(CCCCc1ccccc1)CC(=O)N1C[C@H](C2CCCCC2)C[C@H]1C(=O)O)C(C)C: >= 4
CCOC(=O)[C@H](CCc1ccccc1)N[C@@H](C)C(=O)N1[C@H](C(=O)O)C[C@@H]2CCC[C@@H]21: < 4
